Assayed target: AMP-activated protein kinase, AMPK (Homo sapiens) (UniProt P54646+O43741+P54619+Q9UGJ0+Q9Y478+Q13131+Q9UGI9)
Assay protocol: AMP-dependent Kinase enzyme assay. An in vitro enzyme assay that detects ADP turnover that is directly proportional to AMPK activity. This uses naive AMPK that is activated during the assay with MK-8722
Format: functional
Parameters: scale not given: direction of the effect not stated beside the values
Reported conditions: 30 µM
Quick reference for Percent Effect among some molecules
# value in %; strip the unit string

For orientation, consider the following solved cases.
CC(C)C(NC(=O)NCCNc1ccccn1)c1cccs1 (configuration not stated): -14.7
O=c1[nH]c(CCN2CCCC(Cn3cncn3)C2)nc2ccccc12 (configuration not stated): 0.62
COCC1COCCC12CCN(CCc1ccccc1)CC2 (configuration not stated): 0.285

Req: May I ask what Percent Effect has been recorded for CC1CCN(c2ncc3c(n2)CN(c2ccc4c(c2)OCO4)C3=O)CC1 ?
Resp: -3.15

Req: May I ask what Percent Effect has been recorded for Cc1cc(CC(=O)NCc2ccnc(OCC(F)(F)F)c2)no1 ?
Resp: 3.73

Req: May I ask what Percent Effect has been recorded for c1cnc(N2CCOCC3(CCCN(CC4CC4)C3)C2)cn1 (configuration not stated) ?
Resp: 1.73

Req: May I ask what Percent Effect has been recorded for O=C(NCc1nncn1-c1ccccc1)C1CC(=O)N(CC2CC2)C1 (configuration not stated) ?
Resp: -8.14

Req: May I ask what Percent Effect has been recorded for CCOC1CCCN(C(=O)NCCc2ccn(-c3ccccc3)n2)C1 (configuration not stated) ?
Resp: -1.06

Req: May I ask what Percent Effect has been recorded for Cc1nn(C)c2c(NCc3ccccc3F)nc(C3CC3)nc12 ?
Resp: 15.3

* * *

Assayed target: AMP-activated protein kinase, AMPK (Homo sapiens) (UniProt P54646+O43741+P54619+Q9UGJ0+Q9Y478+Q13131+Q9UGI9)
Assay protocol: AMP-dependent Kinase enzyme assay. An in vitro enzyme assay that detects ADP turnover that is directly proportional to AMPK activity. This uses naive AMPK that is activated during the assay with MK-8722
Format: functional
Parameters: scale not given: direction of the effect not stated beside the values
Reported conditions: 30 µM
Quick reference for Percent Effect among some compounds
# value in %; strip the unit string

For orientation, consider the following solved cases.
Cc1cc(C)n(CC2CCCN2C(=O)c2ccc3[nH]nnc3c2)n1 (stereo unspecified): 5.75
CCOC(=O)NC(CNC(=O)c1ccccn1)CC(C)C (stereo unspecified): 0.908
CCCc1cc(C(=O)N2CCCC(n3ccnc3C)C2)[nH]n1 (stereo unspecified): -3.54
CCC(=O)Nc1ccc2c(c1)CN(C(=O)c1ccco1)CC2: 8.06
O=C(NCC1CC1)C1CN(C(=O)c2cccs2)CC12CCOCC2 (stereo unspecified): 2.41

Next, consider the following compound.
Req: May I ask what Percent Effect has been recorded for c1ccc(OCCN2CCCC(c3noc(C4CC4)n3)C2)cc1 (stereo unspecified) ?
Resp: 3.25

* * *

Quick reference for Percent Effect among some compounds
Assayed target: Protein translocase subunit SecA (Escherichia coli (strain K12)) (UniProt P10408)
Sequence (P10408 whole entry): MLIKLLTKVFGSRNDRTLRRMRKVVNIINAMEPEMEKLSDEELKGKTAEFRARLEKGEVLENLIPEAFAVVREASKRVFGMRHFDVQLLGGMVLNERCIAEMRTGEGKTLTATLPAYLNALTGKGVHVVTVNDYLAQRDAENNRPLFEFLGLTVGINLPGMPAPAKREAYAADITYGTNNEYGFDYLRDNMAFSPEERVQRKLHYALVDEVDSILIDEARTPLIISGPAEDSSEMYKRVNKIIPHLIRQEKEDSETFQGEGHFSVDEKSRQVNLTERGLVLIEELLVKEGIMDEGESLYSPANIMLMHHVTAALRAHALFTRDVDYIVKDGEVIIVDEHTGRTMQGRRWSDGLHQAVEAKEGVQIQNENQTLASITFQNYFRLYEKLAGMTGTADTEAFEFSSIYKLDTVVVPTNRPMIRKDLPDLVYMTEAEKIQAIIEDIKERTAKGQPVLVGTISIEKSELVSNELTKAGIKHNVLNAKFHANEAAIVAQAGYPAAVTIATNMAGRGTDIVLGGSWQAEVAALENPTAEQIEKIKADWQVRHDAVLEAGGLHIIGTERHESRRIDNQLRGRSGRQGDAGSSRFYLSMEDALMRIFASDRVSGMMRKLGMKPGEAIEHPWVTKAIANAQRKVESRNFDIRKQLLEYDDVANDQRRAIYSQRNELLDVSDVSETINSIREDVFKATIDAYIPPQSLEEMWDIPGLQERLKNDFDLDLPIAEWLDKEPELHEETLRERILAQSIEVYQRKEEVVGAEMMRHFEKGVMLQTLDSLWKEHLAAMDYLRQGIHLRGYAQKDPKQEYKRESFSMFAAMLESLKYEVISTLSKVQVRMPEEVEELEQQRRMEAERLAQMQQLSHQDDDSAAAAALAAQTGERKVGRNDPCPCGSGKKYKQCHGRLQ
Assay protocol: Assay to Identify E. coli SecA ATPase Inhibitors
Type: functional
Design: scale not given: direction of the effect not stated beside the values
Reported conditions: 30 µM
Potency and affinity values are given separately.
# value in %; strip the unit string

For orientation, consider the following solved cases.
CCOc1ccc(Cl)c(C(=O)NCc2ccc(C(=O)NC)cc2)n1: -5.52
Cn1ccc(C(=O)N2CCC(Cc3cnc4[nH]ccc4c3)CC2)n1: -2.94
Cc1ccc2cc(C(=O)NCCn3nc4ccccn4c3=O)[nH]c2c1: -1.72
CCC(=O)N1CCC2(CC1)c1nc[nH]c1CCN2S(C)(=O)=O: -5.57
COCCCC1CCCN(C(=O)CCc2cc(O)no2)C1 (centres undefined): 0.503

Next, consider the following compound.
Req: May I ask what Percent Effect has been recorded for Cc1n[nH]c(C2CN(C(=O)c3ccnc(C4CC4)n3)CCO2)n1 (centres undefined) ?
Resp: -1.78
